System: human TRH-DE (Homo sapiens)
Sequence (Q9UKU6 1-1069): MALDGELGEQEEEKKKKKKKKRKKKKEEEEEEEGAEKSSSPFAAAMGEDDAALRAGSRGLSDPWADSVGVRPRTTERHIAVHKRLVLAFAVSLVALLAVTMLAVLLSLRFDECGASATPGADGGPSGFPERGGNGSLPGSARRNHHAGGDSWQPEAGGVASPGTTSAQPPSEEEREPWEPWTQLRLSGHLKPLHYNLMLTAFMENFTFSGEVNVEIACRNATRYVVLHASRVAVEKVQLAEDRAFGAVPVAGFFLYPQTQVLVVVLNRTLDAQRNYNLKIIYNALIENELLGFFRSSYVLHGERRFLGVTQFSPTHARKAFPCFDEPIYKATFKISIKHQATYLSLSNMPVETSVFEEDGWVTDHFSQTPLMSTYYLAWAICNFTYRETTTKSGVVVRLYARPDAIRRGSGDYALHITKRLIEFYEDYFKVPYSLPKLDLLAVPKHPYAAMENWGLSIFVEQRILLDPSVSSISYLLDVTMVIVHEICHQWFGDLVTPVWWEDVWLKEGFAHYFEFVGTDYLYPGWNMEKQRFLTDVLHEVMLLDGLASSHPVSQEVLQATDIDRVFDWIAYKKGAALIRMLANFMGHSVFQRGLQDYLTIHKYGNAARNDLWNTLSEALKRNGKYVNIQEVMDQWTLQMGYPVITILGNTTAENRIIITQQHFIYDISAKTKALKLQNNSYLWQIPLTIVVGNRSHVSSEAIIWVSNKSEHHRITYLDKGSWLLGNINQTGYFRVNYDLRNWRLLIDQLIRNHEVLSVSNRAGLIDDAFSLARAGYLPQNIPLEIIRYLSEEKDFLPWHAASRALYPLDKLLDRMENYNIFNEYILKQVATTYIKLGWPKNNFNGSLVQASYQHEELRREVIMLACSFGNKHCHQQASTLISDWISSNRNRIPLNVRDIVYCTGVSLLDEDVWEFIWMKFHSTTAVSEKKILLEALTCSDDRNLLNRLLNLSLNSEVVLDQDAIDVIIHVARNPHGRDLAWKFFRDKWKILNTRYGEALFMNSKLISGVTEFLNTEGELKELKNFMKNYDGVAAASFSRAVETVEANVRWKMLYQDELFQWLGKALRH
Value Type: IC50 (nM)

Molecule: CC1c2ccccc2C(=O)N1C1CC2(C1)CN(S(=O)(=O)c1ccccc1)C2 (racemic) [Example 267]
Reported: 664

Molecule: C[C@@H]1COc2c(cnn2C2CC2)C(=O)N1C1CC2(C1)CN(S(=O)(=O)c1ccccc1F)C2 [Example 202]
Reported: 19

Molecule: C[C@@H]1COc2nc(N3C[C@H]4C[C@@H]3CO4)ncc2C(=O)N1C1CC2(C1)CN(S(=O)(=O)c1ccccc1F)C2 [Example 396]
Reported: 5

Molecule: Cc1nn(C)c2c1C(=O)N(C1CC3(C1)CN(S(=O)(=O)c1ccccc1F)C3)[C@H](C)CO2 [Example 205]
Reported: 14

Molecule: CC1(O)c2cc(F)ccc2C(=O)N1C1CC2(C1)CN(S(=O)(=O)c1ccccc1F)C2 (racemic) [Example 276]
Reported: 74

Molecule: C[C@@H]1COc2nn(C)cc2C(=O)N1C1CC2(C1)CN(S(=O)(=O)c1ccccc1F)C2 [Example 209]
Reported: 22

Molecule: C[C@@H]1C=Cc2nc(C3(C(F)(F)F)CC3)sc2C(=O)N1C1CC2(C1)CN(S(=O)(=O)c1ccccc1F)C2 [Example 124]
Reported: 17

Molecule: CC1CCc2nc(C3CC3)sc2C(=O)N1C1CC2(C1)CN(S(=O)(=O)c1ccccc1F)C2 (racemic) [Example 93]
Reported: 4

Molecule: Cc1ccc(F)c(S(=O)(=O)N2CC3(CC(N4C(=O)c5ccccc5C4C)C3)C2)c1 (racemic) [Example 272]
Reported: 101

Molecule: C[C@@H]1COc2nc(C3CC3)ccc2C(=O)N1C1CC2(C1)CN(S(=O)(=O)c1ccccc1[N+](=O)[O-])C2 [Example 55]
Reported: 54

Molecule: CC1CCc2sc(C(F)(F)F)nc2C(=O)N1C1CC2(C1)CN(S(=O)(=O)c1ccccc1F)C2 (racemic) [Example 98]
Reported: 21

Molecule: C[C@@H]1COc2nc(N3C[C@H]4COC[C@H]4C3)ncc2C(=O)N1C1CC2(C1)CN(S(=O)(=O)c1ccccc1F)C2 [Example 388]
Reported: 4

Molecule: CC1C=Cc2c(noc2C2CC2)C(=O)N1C1CC2(C1)CN(S(=O)(=O)c1ccccc1F)C2 (racemic) [Example 131]
Reported: 32

Molecule: C[C@@H]1CNc2nc(C3CC3)ccc2C(=O)N1C1CC2(C1)CN(S(=O)(=O)c1ccccc1F)C2 [Example 258]
Reported: 1

Molecule: C[C@@H]1COc2nc(C(F)(F)F)ccc2C(=O)N1C1CC2(C1)CN(S(=O)(=O)c1ccccc1[N+](=O)[O-])C2 [Example 57]
Reported: 253

Molecule: CC1COc2cc(F)cnc2C(=O)N1C1CC2(C1)CN(S(=O)(=O)c1ccccc1F)C2 (racemic) [Example 10]
Reported: 12

Molecule: C[C@@H]1COc2cc(C3CC3)cnc2C(=O)N1C1CC2(C1)CN(S(=O)(=O)c1ccccc1F)C2 [Example 311]
Reported: 1

Molecule: C[C@@H]1COc2nc(OC3CCCC3)ncc2C(=O)N1C1CC2(C1)CN(S(=O)(=O)c1ccccc1F)C2 [Example 372]
Reported: 4

Molecule: Cc1ccc(F)c(S(=O)(=O)N2CC3(CC(N4C(=O)c5ccccc5C4(C)O)C3)C2)c1 (racemic) [Example 287]
Reported: 90

Molecule: CC(C)C(=O)N1C[C@@H](C)N(C2CC3(C2)CN(S(=O)(=O)c2ccccc2F)C3)C(=O)c2ncccc21 [Example 305]
Reported: 62

Molecule: CC1c2ccccc2C(=O)N1C1CC2(C1)CN(S(=O)(=O)c1ccccc1F)C2 (centres unmarked) [Example 266]
Reported: 92

Molecule: C[C@@H]1COc2nc(N3C[C@@H]4C[C@H]3CO4)ncc2C(=O)N1C1CC2(C1)CN(S(=O)(=O)c1ccccc1F)C2 [Example 397]
Reported: 7

Molecule: C[C@@H]1COc2ncc(C#N)cc2C(=O)N1C1CC2(C1)CN(S(=O)(=O)c1ccccc1F)C2 [Example 333]
Reported: 18

Molecule: Cc1ccc2c(n1)C(=O)N(C1CC3(C1)CN(S(=O)(=O)c1ccccc1F)C3)C(C)CO2 (racemic) [Example 14]
Reported: 24

Molecule: CC1Cc2cc(C(F)(F)F)ncc2C(=O)N1C1CC2(C1)CN(S(=O)(=O)c1ccccc1F)C2 (centres unmarked) [Example 343]
Reported: 18

Molecule: C[C@@H]1COc2cc(N3CCCC(F)(F)C3)ncc2C(=O)N1C1CC2(C1)CN(S(=O)(=O)c1ccccc1F)C2 [Example 157]
Reported: 1

Molecule: CC1CCCNC(=O)N1C1CC2(C1)CN(S(=O)(=O)c1ccccc1F)C2 (centres unmarked) [Example 432]
Reported: 344

Molecule: CC1COc2ccnc(F)c2C(=O)N1C1CC2(C1)CN(S(=O)(=O)c1ccccc1F)C2 (racemic) [Example 20]
Reported: 17

Molecule: C[C@@H]1C=Cc2nc(C(C)(F)F)sc2C(=O)N1C1CC2(C1)CN(S(=O)(=O)c1ccccc1F)C2 [Example 117]
Reported: 46

* * *

System: human TRH-DE (Homo sapiens)
pIC50: −log10 of the molar value.
Value Type: pIC50

Molecule: O=C1c2cccnc2OC[C@@H](C2CC2)N1C1CC2(C1)CN(S(=O)(=O)c1ccccc1F)C2
Reported: 7.31
//
Molecule: C[C@@H]1CCn2nc(F)c(Br)c2C(=O)N1C1CC2(C1)CN(S(=O)(=O)c1ccccc1F)C2
Reported: 7.82
//
Molecule: C[C@@H]1COc2nc(OC(F)(F)F)ccc2C(=O)N1C1CC2(C1)CN(S(=O)(=O)c1ccccc1F)C2
Reported: 8.15
//
Molecule: CCC1c2ccccc2C(=O)N1C1CC2(C1)CN(S(=O)(=O)c1cc(OC)ccc1F)C2 (racemic)
Reported: 6.82
//
Molecule: C[C@@H]1COc2noc(C(C)(C)C)c2C(=O)N1C1CC2(C1)CN(S(=O)(=O)c1ccccc1F)C2
Reported: 7.42
//
Molecule: C[C@@H]1Cn2cc(C3CC3)nc2C(=O)N1C1CC2(C1)CN(S(=O)(=O)c1ccccc1F)C2
Reported: 7.72
//
Molecule: C[C@@H]1COCCC(=O)N1C1CC2(C1)CN(S(=O)(=O)c1ccccc1F)C2
Reported: 6.37
//
Molecule: Cc1nc2c(s1)C(=O)N(C1CC3(C1)CN(S(=O)(=O)c1ccccc1F)C3)[C@H](C)CC2
Reported: 7.64
//
Molecule: C[C@@H]1COc2nc(N3CC[C@H](F)C3)ncc2C(=O)N1C1CC2(C1)CN(S(=O)(=O)c1ccccc1F)C2
Reported: 9.00
//
Molecule: CC1C=Cc2ncc(F)cc2C(=O)N1C1CC2(C1)CN(S(=O)(=O)c1ccccc1F)C2 (racemic)
Reported: 7.21
//
Molecule: C[C@@H]1C=Cc2nc([C@@H]3C[C@@H]3F)sc2C(=O)N1C1CC2(C1)CN(S(=O)(=O)c1ccccc1F)C2
Reported: 7.82
//
Molecule: C[C@@H]1Cn2c(ccc2C(F)(F)F)C(=O)N1C1CC2(C1)CN(S(=O)(=O)c1ccccc1F)C2
Reported: 6.78
//
Molecule: C[C@@H]1COc2c(c(C3CC3)nn2C2CC2)C(=O)N1C1CC2(C1)CN(S(=O)(=O)c1ccccc1F)C2
Reported: 7.85
//
Molecule: C[C@@H]1COc2nc(N3C[C@H]4CC[C@@H](C3)O4)ncc2C(=O)N1C1CC2(C1)CN(S(=O)(=O)c1ccccc1F)C2
Reported: 7.80
//
Molecule: CC1c2ccncc2C(=O)N1C1CC2(C1)CN(S(=O)(=O)c1ccccc1F)C2 (stereo not drawn)
Reported: 6.38
